method description: growth inhibitors of H69AR lung tumor, primary screen, human, duplicate replicates (AID 580)
particulars: H69AR lung tumor cells viability, ATP luminescence, 72 h; at 10 µM
The source made the active and inactive calls.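 Rule for the calls: active = viability at or under a set limit in both replicates, limit being median viability minus 3 SD (cut at about 48% in these data, passing the limit was not always enough); inconclusive = at or under the limit in just one replicate; inactive = at or above the limit in both replicates.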
Pick one: t for active, f for inactive

The examples below pair each entry with its known result.
Query: Status in this test for CCn1c(Cc2ccc(OC)cc2)nnc1SCC(=O)Nc1cccc(C(=O)OC)c1 ?
Reply: f

Query: Status in this test for O=C(CN1CCOCC1)N1CCCc2c1c(=O)oc1ccc(OCc3ccccc3)cc21 ?
Reply: f

Query: Status in this test for CCN(Cc1nc2ccccc2c(=O)[nH]1)Cc1cc(=O)oc2cc(C)c(C)cc12 ?
Reply: f

Query: Status in this test for Cn1c(=O)c(-c2ccccc2)nn2c3ccccc3nc12 ?
Reply: f

Query: Status in this test for CC(C)OC(=O)CSc1nnc(-c2ccc(C(C)(C)C)cc2)n1N ?
Reply: f

Query: Status in this test for CC(C)Cn1c(CN(Cc2ccccc2)Cc2ccccc2)nc2c1c(=O)n(C)c(=O)n2C ?
Reply: f

Query: Status in this test for CC1(C)CC(=O)C(C=NCCc2ccc(S(N)(=O)=O)cc2)=C(O)C1 ?
Reply: f

Query: Status in this test for COc1ccc(-n2c(SCC#N)nc3ccccc3c2=O)cc1 ?
Reply: f

Next:
Query: Status in this test for Cn1c(Cc2csc(N)n2)nnc1SCC(=O)NCc1ccccc1 ?
Reply: f
